B1: Hairpin Ribozyme (parent)
chain: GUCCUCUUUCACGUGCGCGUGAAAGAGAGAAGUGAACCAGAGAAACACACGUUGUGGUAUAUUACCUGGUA

Variants of: B1
Assay: self-cleavage, relative activity (ratio to wild type); higher = more cleavage; co-transcriptional
Entries annotated with measured self-cleavage

{"sequence.code": "GUCCUCUUUCACGUGCGCGUGAAAGAGAGAGGUGAACCAGAGAAACACACUUUGUGGUAUAUUACCUGGUA", "self-cleavage": 0.599}
{"sequence.code": "UUCCUCUUUCACGUGCGCGUGAAAGAGAGAAGUGAACCCGAGAAACACACGUUGUGGUAUAUUACCUGGUA", "self-cleavage": 0.118}
{"sequence.code": "GUCCUCUUUCACGUGCGCGUGAAAGAGAGAAGUGAACCAGAGAAACACACGUUGUGGGAUAUUACCUGGCA", "self-cleavage": 0.84}
{"sequence.code": "GUCCUCUUUCACGUGCGCGUGAUAGAGAGAAGUGAAACAGAGAAACACACGUUGUGGUAUAUUACCUGGUA", "self-cleavage": 0.324}
{"sequence.code": "GUCCUCUUUCACGUGCGCGUGAAAGAGAGAAGUGCACCAGAGAAACACACGUUGUGGUAUAUUACCGGGUA", "self-cleavage": 0.278}
{"sequence.code": "GUCCUCUGUCACGUGCGCGUGAAAGAGAGAAGUGAACCAGAGAAACACACGUUGUGGUAUAUUACCUGGUG", "self-cleavage": 0.993}
{"sequence.code": "GUCCUCCUUCACGUGCGCGUGAAAGAGAGAAGUGAACCAGAGAAACACACGUUGUGGUAUAUUAUCUGGUA", "self-cleavage": 0.254}
{"sequence.code": "GUCCUCUUUCACGUGCGCGUGAAAGAGAGAAGUGAACUAGAGAAACACACGUUGUGGUCUAUUACCUGGUA", "self-cleavage": 0.228}
{"sequence.code": "GUCCUCUUUCACGUGCGCGUGAAAGAGAGAAGUGAACCAGAGAAACACAGGUUGUUGUAUAUUACCUGGUA", "self-cleavage": 0.124}
{"sequence.code": "GUCCUCUUGCACGUGCGCGUGAAAGAGAGAAGUGAACCAGAGAAACACACGUUGUGGUACAUUACCUGGUA", "self-cleavage": 1.04}
{"sequence.code": "GUCCUCUUUCGCGUGCGCGUGAAAGAGAGAAGUGAACCAGAGAAACACACGUCGUGGUAUAUUACCUGGUA", "self-cleavage": 1.02}
{"sequence.code": "GUCCUCUUUCACGGGCGCGUGAAAGAGAGAAGUGAACCAGGGAAACACACGUUGUGGUAUAUUACCUGGUA", "self-cleavage": 0.589}
{"sequence.code": "GUCCUCUUUCACGUGCGGGUGAAAGAGAGAAGUGAACCAGAGAAACACACGUUGUGGUAAAUUACCUGGUA", "self-cleavage": 0.9}
{"sequence.code": "GUCCUCUUUCACGUGCGCGUGAAAGAGCGAACUGAACCAGAGAAACACACGUUGUGGUAUAUUACCUGGUA", "self-cleavage": 0.121}
{"sequence.code": "GUCCUCUUCCACGUGGGCGUGAAAGAGAGAAGUGAACCAGAGAAACACACGUUGUGGUAUAUUACCUGGUA", "self-cleavage": 0.63}
